Test Summary: Chemical Stability Data for Analogs
Experimental Setup: After 10 days, Oven to room conditions
Measurement Kind: % remaining (%)

[[record]]
compound = "C[N+](C)(C)CCO [Choline, Tetrathiomolybdate, bis(choline)]"
measurement_kind = "% remaining"
reported = 62

[[record]]
compound = "CC[N+](C)(CC)CC.CC[N+](C)(CC)CC.[S]=[Mo](=[S])([S-])[S-]"
measurement_kind = "% remaining"
reported = 63

[[record]]
compound = "C[N+](C)(C)CCCCC[N+](C)(C)C"
measurement_kind = "% remaining"
reported = 86

[[record]]
compound = "C[N+](C)(C)CCCC[N+](C)(C)C"
measurement_kind = "% remaining"
reported = 40

[[record]]
compound = "CC[N+](CC)(CC)c1ccccc1.CC[N+](CC)(CC)c1ccccc1.[S]=[Mo](=[S])([S-])[S-]"
measurement_kind = "% remaining"
reported = 76

[[record]]
compound = "Cc1cc[n+](C)cc1"
measurement_kind = "% remaining"
reported = 32

[[record]]
compound = "CCn1cc[n+](C)c1.CCn1cc[n+](C)c1.[S]=[Mo](=[S])([S-])[S-]"
measurement_kind = "% remaining"
reported = 75

[[record]]
compound = "C[N+]1(C)CCCC1.C[N+]1(C)CCCC1.[S]=[Mo](=[S])([S-])[S-]"
measurement_kind = "% remaining"
reported = 70

[[record]]
compound = "C[N+](C)(C)Cc1ccccc1.C[N+](C)(C)Cc1ccccc1.[S]=[Mo](=[S])([S-])[S-]"
measurement_kind = "% remaining"
reported = 94

[[record]]
compound = "C[N+](C)(C)c1ccccc1.C[N+](C)(C)c1ccccc1.[S]=[Mo](=[S])([S-])[S-]"
measurement_kind = "% remaining"
reported = 85


====

Reported values of % remaining for individual entries
Test Summary: Chemical Stability Data for Analogs
Experimental Setup: 7 days, 74-77% RH, RT
Measurement Kind: % remaining (%)

[[record]]
smiles_repr = "C=C[N+](C)(C)C.C=C[N+](C)(C)C.[S]=[Mo](=[S])([S-])[S-]"
measurement_kind = "% remaining"
scale_unit = "%"
reported = 72

[[record]]
smiles_repr = "C[N+](C)(C)CC1CC1.C[N+](C)(C)CC1CC1.[S]=[Mo](=[S])([S-])[S-]"
measurement_kind = "% remaining"
scale_unit = "%"
reported = 86

[[record]]
smiles_repr = "C[N+](C)(C)CCCCCC[N+](C)(C)C.[S]=[Mo](=[S])([S-])[S-]"
measurement_kind = "% remaining"
scale_unit = "%"
reported = 94

[[record]]
smiles_repr = "C[N+](C)(Cc1ccccc1)c1ccccc1.C[N+](C)(Cc1ccccc1)c1ccccc1.[S]=[Mo](=[S])([S-])[S-]"
measurement_kind = "% remaining"
scale_unit = "%"
reported = 45

[[record]]
smiles_repr = "C[N+](C)(C)c1ccccc1.C[N+](C)(C)c1ccccc1.[S]=[Mo](=[S])([S-])[S-]"
measurement_kind = "% remaining"
scale_unit = "%"
reported = 98

